B1: LINE1-mini (parent)
chain: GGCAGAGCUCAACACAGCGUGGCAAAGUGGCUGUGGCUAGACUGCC

Variants of: B1
test_details: self-cleavage, relative activity (ratio to wild type); higher = more cleavage; in vitro, sequencing; the parent is a self-cleaving ribozyme
Decide using self-cleavage: a value greater than or equal to 0.07 is T, a smaller one is F.

Below are worked cases with known answers.
variant_label | answer_label
G30A U43A | T
C3G G40A | T
C15A G29A | T
A14U A26G | T
G5A G33C | T

Could you verify whether the entry C23G U43C shows self-cleavage of no less than 0.07?
T

Could you verify whether the entry G5C A12C shows self-cleavage of no less than 0.07?
F

Could you verify whether the entry G19U G36U shows self-cleavage of no less than 0.07?
F

Where these numbers come from: the RNAGym collection of RNA variant scans (doi:10.7554/elife.90254)
